Target system: MMP-13h (Homo sapiens (Human))
Experiment: Inhibition constant (Ki) on MMP-13h
Assay type: biochemical
Test parameters: read-out: Ki MMP-13h; human MMP-13
From the text: The inhibition constant Ki of these compounds has been determined according to the protocol described by Devel et al, 2006, J. Biol. Chem. (7). In this table I and also in table II below, “h” corresponds to human. All of the compounds have therefore been evaluated on human MMPs.
pKi: −log10 of the molar value.
Experimental readout: pKi

Tell me the measured pKi of "NC(=O)[C@H](CO)NC(=O)[C@H](CCC(=O)O)NC(=O)CCc1ccc(-c2cccs2)cc1" , please.
< 6.00

Now the same for "O=C(O)CC[C@H](NC(=O)CCc1ccc(-c2ccccc2)cc1)C(=O)N1CCC[C@@H](CC(=O)O)C1"
< 6.00

Now the same for "NC(=O)[C@H](CCC(=O)O)NC(=O)[C@H](CCC(=O)O)NC(=O)CCc1noc(-c2ccccc2)n1"
< 6.00

====

Target system: UniProtKB P08254
Experiment: Inhibition constant (Ki) on MMP-3h
Assay type: biochemical
Test parameters: read-out: Ki MMP-3h; human MMP-3
From the text: The inhibition constant Ki of these compounds has been determined according to the protocol described by Devel et al, 2006, J. Biol. Chem. (7). In this table I and also in table II below, “h” corresponds to human. All of the compounds have therefore been evaluated on human MMPs.
Experimental readout: Ki

Tell me the measured Ki of "Cc1ccsc1-c1ccc(CCC(=O)N[C@@H](CCC(=O)O)C(=O)N[C@@H](CCC(=O)O)C(N)=O)cc1" , please.
> 10000 nM

Now the same for "NC(=O)[C@H](CCC(=O)O)NC(=O)[C@H](CC(=O)O)NC(=O)CCc1ccc(-c2cc(-c3ccccc3)cs2)cc1"
> 1000 nM

Now the same for "NC(=O)[C@H](CCC(=O)O)NC(=O)[C@H](CCC(=O)O)NC(=O)CCc1csc(-c2ccccc2)n1"
> 1000 nM

====

Target system: MMP-3h (Homo sapiens (Human), UniProt P08254)
Sequence (P08254 100-477): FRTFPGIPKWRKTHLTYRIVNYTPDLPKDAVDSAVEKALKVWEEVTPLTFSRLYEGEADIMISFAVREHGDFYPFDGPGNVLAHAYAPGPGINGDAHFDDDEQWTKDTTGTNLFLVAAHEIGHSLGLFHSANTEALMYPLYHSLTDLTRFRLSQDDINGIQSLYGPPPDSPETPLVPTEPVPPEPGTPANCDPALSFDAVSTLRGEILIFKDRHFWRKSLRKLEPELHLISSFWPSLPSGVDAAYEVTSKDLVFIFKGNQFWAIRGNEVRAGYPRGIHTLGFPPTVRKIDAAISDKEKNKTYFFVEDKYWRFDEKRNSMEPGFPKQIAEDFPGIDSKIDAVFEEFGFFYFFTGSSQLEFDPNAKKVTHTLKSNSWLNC
Experiment: Inhibition constant (Ki) on MMP-3h
Format: biochemical
Test parameters: read-out: Ki MMP-3h; human MMP-3
pKi: −log10 of the molar value.
Field: pKi. Provide a value for each of the molecules that follow.

Tell me the measured pKi of NC(=O)[C@H](CCC(=O)O)NC(=O)[C@H](CCC(=O)O)NC(=O)CCc1cc(-c2ccccc2)on1 [Compound 25] , please.
< 5.30

Now the same for NC(=O)[C@H](CC(=O)O)NC(=O)[C@H](CCC(=O)O)NC(=O)CCc1ccc(-c2ccccc2)cc1 [Compound 45]
< 5.30

Now the same for Cc1nc(-c2ccc(CCC(=O)N[C@@H](CCC(=O)O)C(=O)N[C@@H](CCC(=O)O)C(N)=O)cc2)no1 [Compound 34]
< 6.00

Now the same for NC(=O)[C@H](Cc1ccc(O)cc1)NC(=O)[C@H](CCC(=O)O)NC(=O)CCc1ccc(-c2ccccc2)cc1 [Compound 46]
< 5.00

Now the same for NC(=O)[C@H](CCC(=O)O)NC(=O)[C@H](CCC(=O)O)NC(=O)CCc1ccc(-c2cccc(N)c2)cc1 [Compound 53]
< 6.00

Now the same for NC(=O)[C@H](CC(=O)O)NC(=O)[C@H](CCC(=O)O)NC(=O)CCc1ccc(-c2cc(-c3ccccc3)cs2)cc1 [Compound 101]
< 5.30

====

Target system: MMP-14h (Homo sapiens (Human), UniProt P50281)
Experiment: Inhibition constant (Ki) on MMP-14h
Type: biochemical
Test parameters: read-out: Ki MMP-14h; human MMP-14
Experimental readout: Ki

Tell me the measured Ki of "O=C(O)CC[C@H](NC(=O)CCc1ccc(-c2cccs2)cc1)C(=O)Nc1cccc(CC(=O)O)c1" , please.
430 nM

Now the same for "NC(=O)[C@H](CO)NC(=O)[C@H](CCC(=O)O)NC(=O)CCc1ccc(-c2cccs2)cc1"
> 1000 nM

Now the same for "NC(=O)[C@H](CCC(=O)O)NC(=O)[C@H](CCC(=O)O)NC(=O)CCc1cc(-c2ccccc2)no1"
> 1000 nM

Now the same for "NC(=O)[C@H](CCCC(=O)O)NC(=O)[C@H](CCC(=O)O)NC(=O)CCc1cc(-c2ccc(-c3cccc(Cl)c3)cc2)no1"
> 5000 nM

Now the same for "O=C(O)CC[C@H](NC(=O)CCc1ccc(-c2ccc(-c3ccccc3)cc2)cc1)C(=O)N1CCC[C@@H](CC(=O)O)C1"
> 1000 nM

Now the same for "NC(=O)[C@H](CCC(=O)O)NC(=O)CCc1ccc(-c2cc(-c3ccccc3)cs2)cc1"
> 1000 nM

Now the same for "NC(=O)[C@H](CCC(=O)O)NC(=O)[C@H](CO)NC(=O)CCc1ccc(-c2ccc(-c3ccccc3)cc2)cc1"
> 1000 nM

Now the same for "O=C(O)CC[C@H](NC(=O)CCc1ccc(-c2ccccc2)cc1)C(=O)Nc1cccc(CC(=O)O)c1"
> 1000 nM

Now the same for "NC(=O)[C@H](CCC(=O)O)NC(=O)[C@H](CC(=O)O)NC(=O)CCc1ccc(-c2cc(-c3ccccc3)cs2)cc1"
> 1000 nM

====

Target system: MMP-13h (Homo sapiens (Human), UniProt P45452)
Experiment: Inhibition constant (Ki) on MMP-13h
Type: biochemical
Test parameters: read-out: Ki MMP-13h; human MMP-13
Excerpt: The inhibition constant Ki of these compounds has been determined according to the protocol described by Devel et al, 2006, J. Biol. Chem. (7). In this table I and also in table II below, “h” corresponds to human. All of the compounds have therefore been evaluated on human MMPs.
pKi: −log10 of the molar value.
Experimental readout: pKi

Tell me the measured pKi of NC(=O)[C@H](CCC(=O)O)NC(=O)[C@H](CCC(=O)O)NC(=O)CCc1ccc(-c2cccc(O)c2)cc1 [Compound 54] , please.
< 5.00

Now the same for NC(=O)[C@H](CCC(=O)O)NC(=O)[C@H](CCC(=O)O)NC(=O)CCc1ccc(-c2cccc(Cl)c2)cc1 [Compound 57]
< 5.30

Now the same for CC(C)C[C@H](NC(=O)[C@H](CCC(=O)O)NC(=O)CCc1ccc(-c2ccccc2)cc1)C(N)=O [Compound 50]
< 6.00

Now the same for NCCCC[C@H](NC(=O)[C@H](CCC(=O)O)NC(=O)CCc1ccc(-c2ccccc2)cc1)C(N)=O [Compound 44]
< 6.00

Now the same for Cc1ccsc1-c1ccc(CCC(=O)N[C@@H](CCC(=O)O)C(=O)N[C@@H](CCC(=O)O)C(N)=O)cc1 [Compound 107]
< 6.00

Now the same for NC(=O)[C@H](CCC(=O)O)NC(=O)[C@H](CCC(=O)O)NC(=O)CCc1ccc(I)cc1 [Compound 31]
< 6.00
